Each record here notes measured IC50.
# study.system: Recombinant human PREP (Homo sapiens)
# Construct: made in house
# Sequence (P48147 whole entry): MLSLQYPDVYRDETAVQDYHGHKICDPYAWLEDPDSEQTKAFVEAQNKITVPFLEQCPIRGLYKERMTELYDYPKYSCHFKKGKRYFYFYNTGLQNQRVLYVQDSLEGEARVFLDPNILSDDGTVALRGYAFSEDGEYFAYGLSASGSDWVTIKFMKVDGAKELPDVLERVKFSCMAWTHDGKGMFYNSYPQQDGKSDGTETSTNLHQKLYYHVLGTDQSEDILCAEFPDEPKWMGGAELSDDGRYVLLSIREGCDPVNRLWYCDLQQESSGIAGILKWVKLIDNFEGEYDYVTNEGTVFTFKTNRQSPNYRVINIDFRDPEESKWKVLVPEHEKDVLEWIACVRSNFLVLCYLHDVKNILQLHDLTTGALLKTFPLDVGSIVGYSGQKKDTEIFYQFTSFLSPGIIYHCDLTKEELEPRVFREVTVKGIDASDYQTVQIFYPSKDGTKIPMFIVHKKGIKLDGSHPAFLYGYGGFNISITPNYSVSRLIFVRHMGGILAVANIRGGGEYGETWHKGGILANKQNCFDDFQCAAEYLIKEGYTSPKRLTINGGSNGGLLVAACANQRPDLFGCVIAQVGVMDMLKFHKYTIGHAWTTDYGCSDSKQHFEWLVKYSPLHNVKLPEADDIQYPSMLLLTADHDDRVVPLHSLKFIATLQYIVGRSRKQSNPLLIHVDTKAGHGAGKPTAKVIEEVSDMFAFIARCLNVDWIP
# procedure.text: PREP inhibition assay (IC50, Suc-Gly-Pro-AMC substrate)
# Assay type: biochemical
# measurement.conditions: mean with standard deviation, n = 3
Don't forget the unit after the number, please.

N#C[C@@H]1CC(F)(F)CN1C(=O)CNC(=O)c1ccnc2ccc(OCCCCNc3c(NCCNC(=O)CCCCC4(N(CC(=O)[O-])CC(=O)[O-])CN(CC(=O)[O-])CCN(CC(=O)[O-])C4)c(=O)c3=O)cc12.[Sc+3] [[^natSc]Sc-AAZTA^5.SA.FAPi] | 3.6 µM
N#C[C@@H]1CC(F)(F)CN1C(=O)CNC(=O)c1ccnc2ccc(OCCCCNc3c(NCCNC(=O)CCCCC4(N(CC(=O)[O-])CC(=O)[O-])CN(CC(=O)[O-])CCN(CC(=O)[O-])C4)c(=O)c3=O)cc12.[Lu+3] [[^natLu]Lu-AAZTA^5.SA.FAPi] | 3.2 µM

From here, focus on the item given below.
-- ask Which IC50 value is on record for N#C[C@@H]1CC(F)(F)CN1C(=O)CNC(=O)c1ccnc2ccc(OCCCCNc3c(NCCNC(=O)CCCCC4(N(CC(=O)O)CC(=O)O)CN(CC(=O)O)CCN(CC(=O)O)C4)c(=O)c3=O)cc12 ?
-- reply 2.4 µM

---

Each record here notes measured IC50.
# study.system: Recombinant human FAP (Homo sapiens)
# Construct: made in house
# procedure.text: FAP inhibition assay (IC50, Z-Gly-Pro-AMC substrate)
# Assay type: biochemical
# measurement.conditions: mean with standard deviation, n = 3
Enter your answer as a number in nM; do not include the unit.

N#C[C@@H]1CC(F)(F)CN1C(=O)CNC(=O)c1ccnc2ccc(OCCCCNc3c(NCCNC(=O)CCCCC4(N(CC(=O)O)CC(=O)O)CN(CC(=O)O)CCN(CC(=O)O)C4)c(=O)c3=O)cc12 [AAZTA^5.SA.FAPi] | 0.56
N#C[C@@H]1CC(F)(F)CN1C(=O)CNC(=O)c1ccnc2ccc(OCCCCNc3c(NCCNC(=O)CCCCC4(N(CC(=O)[O-])CC(=O)[O-])CN(CC(=O)[O-])CCN(CC(=O)[O-])C4)c(=O)c3=O)cc12.[Sc+3] [[^natSc]Sc-AAZTA^5.SA.FAPi] | 0.57

From here, focus on the item given below.
-- ask Which IC50 value is on record for N#C[C@@H]1CC(F)(F)CN1C(=O)CNC(=O)c1ccnc2ccc(OCCCCNc3c(NCCNC(=O)CCCCC4(N(CC(=O)[O-])CC(=O)[O-])CN(CC(=O)[O-])CCN(CC(=O)[O-])C4)c(=O)c3=O)cc12.[Lu+3] [[^natLu]Lu-AAZTA^5.SA.FAPi] ?
-- reply 0.55

---

# study.system: Recombinant human FAP (Homo sapiens, UniProt Q12884)
# Construct: made in house
# Sequence (Q12884 1-760): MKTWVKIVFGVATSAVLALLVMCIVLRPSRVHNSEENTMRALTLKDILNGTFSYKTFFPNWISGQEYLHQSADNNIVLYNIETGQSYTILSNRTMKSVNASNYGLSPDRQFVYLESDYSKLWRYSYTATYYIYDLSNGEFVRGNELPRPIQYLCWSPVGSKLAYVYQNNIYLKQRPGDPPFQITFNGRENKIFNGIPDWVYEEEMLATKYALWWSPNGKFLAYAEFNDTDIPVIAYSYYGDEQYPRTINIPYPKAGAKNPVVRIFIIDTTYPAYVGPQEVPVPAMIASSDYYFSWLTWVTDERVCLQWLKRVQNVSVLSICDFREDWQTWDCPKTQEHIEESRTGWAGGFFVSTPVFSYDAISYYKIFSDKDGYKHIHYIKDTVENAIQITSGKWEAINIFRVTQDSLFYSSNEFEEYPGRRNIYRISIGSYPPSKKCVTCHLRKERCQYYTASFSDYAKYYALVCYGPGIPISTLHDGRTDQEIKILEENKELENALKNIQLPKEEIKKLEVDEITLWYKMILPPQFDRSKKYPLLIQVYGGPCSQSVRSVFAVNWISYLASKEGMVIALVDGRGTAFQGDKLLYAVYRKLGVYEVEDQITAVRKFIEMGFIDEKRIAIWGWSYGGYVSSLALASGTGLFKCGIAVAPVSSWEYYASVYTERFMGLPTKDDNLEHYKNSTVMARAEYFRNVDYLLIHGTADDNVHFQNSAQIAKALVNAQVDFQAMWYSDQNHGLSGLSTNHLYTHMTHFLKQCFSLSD
# procedure.text: FAP inhibition assay (IC50, Z-Gly-Pro-AMC substrate)
# Type: biochemical
# measurement.conditions: ratio of PREP IC50 and FAP IC50
# Procedure: Enzymes: Recombinant human FAP and PREP were expressed and purified as published. Recombinant human dipeptidyl 9 (DPP9) was purified as described by De Decker et al.. Human dipeptidyl peptidase 4 was purified from seminal plasma as published. IC50 measurements and counter-screening: IC50-measurements of the probes for FAP and PREP were carried out as published, using, respectively, Z-Gly-Pro-AMC and Suc-Gly-Pro-AMC as the substrate. […]
readout.kind: Selectivitiy Index (FAP/PREP)
// response body must contain only the number

N#C[C@@H]1CC(F)(F)CN1C(=O)CNC(=O)c1ccnc2ccc(OCCCCNc3c(NCCNC(=O)CN4CCN(CC(=O)[O-])CCN(CC(=O)[O-])CCN(CC(=O)[O-])CC4)c(=O)c3=O)cc12.[Ga+3] [[^natGa]Ga-DOTA.SA.FAPi] | 6214

-- ask Which Selectivitiy Index (FAP/PREP) value is on record for N#C[C@@H]1CC(F)(F)CN1C(=O)CNC(=O)c1ccnc2ccc(OCCCCNc3c(NCCNC(=O)CN4CCN(CC(=O)[O-])CCN(CC(=O)[O-])CCN(CC(=O)[O-])CC4)c(=O)c3=O)cc12.[Lu+3] [[^natLu]Lu DOTA.SA.FAPi] ?
-- reply 3125
